system: TRPC4 (mouse), co-expressed with 5HT1a in HEK293; experiment: enhancement of serotonin-evoked TRPC4 response – cell-based, second counter screen, HEK293 TRPC4/5HT1a, Fluo-4, counter-screen for TRPC4 potentiator project, confirmation (AID 434979); conditions: Fluo-4 calcium flux, at 10 µM, serotonin added at its EC20 dose; hits give high values
The source made the active and inactive calls.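 The calls were made as follows: active = signal rise over 3 SD above mean of control wells given weak agonist, in both repeats and first screen; inactive = the rest.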
experimental readout: potentiation

Reference set (5 entries):
| compound | experimental readout | value measured |
| --- | --- | --- |
| CC1CCc2c(sc3ncnc(SCC(=O)Nc4ccc(C(=O)O)cc4)c23)C1 (configuration not stated) | potentiation | inactive |
| COc1ccc(-c2nn(-c3ccccc3C)cc2CNC(C)c2cn(C)nc2C)cc1F (configuration not stated) | potentiation | inactive |
| Cn1cc(-c2nc3ccccc3[nH]2)c2ccccc21 | potentiation | inactive |
| Cc1cc(S(=O)(=O)NC2CCN(Cc3ccccc3)CC2)c(C)cc1Cl | potentiation | 23.1% (active) |
| Cc1ccc2oc(C(=O)N3CCC(O)(c4ccccc4)CC3)c(C)c2c1 | potentiation | 27.2% (active) |

State its potentiation on TRPC4 (mouse), co-expressed with 5HT1a in HEK293: COc1ccc(-n2c3c(cc(C(=O)NCc4ccco4)c2=O)C(=O)CC(C)(C)C3)cc1
inactive

Identify the measured potentiation of CCN1CCN(c2ccc(S(=O)(=O)N3CCOCC3)cc2NC(=O)c2ccccc2SC)CC1 for TRPC4 (mouse), co-expressed with 5HT1a in HEK293.
inactive

Record COc1ccc(C2CC(=O)c3cnc(N4CCN(Cc5ccccc5)CC4)nc3C2)cc1 (configuration not stated) : what is its potentiation with TRPC4 (mouse), co-expressed with 5HT1a in HEK293?
14.7% (active)

Value wanted: potentiation (TRPC4 (mouse), co-expressed with 5HT1a in HEK293) of entry Cc1nc2scc(-c3ccccc3)c2c(=O)n1N=C1C=CC(=O)C=C1
inactive

Give potentiation (TRPC4 (mouse), co-expressed with 5HT1a in HEK293) of the following compound: COc1ccc(N=C2SCC(=O)N2Cc2ccccc2)cc1
inactive
